system: SF-539 CNS; experiment: NCI-60 one-dose screen, 48 h (100 = growth as untreated, 0 = no growth, -100 = all killed); details: 10 µM
The panel holds about 83,000 compounds, 20% with a hit somewhere; the sample as a whole holds those more often.
assay.readout: growth (%)
One number for each entry, in %.

These solved cases illustrate the format of a correct answer.
- mol.smiles: "CN1CCN(CCCn2c(=O)c3sc4ncccc4c3n3nnc(-c4ccccc4)c23)CC1"
  assay.readout: "growth"
  unit.symbol: "%"
  meas.value: -90.5
- mol.smiles: "CCOC(=O)c1sc2ncnc(Nc3ccc(NC(=O)Nc4ccc(Cl)cc4)cc3)c2c1C"
  assay.readout: "growth"
  unit.symbol: "%"
  meas.value: -1.23
- mol.smiles: "COc1cc(/C=C/c2cc(/C=C/c3ccc(O)c(OC)c3)n(C(=O)Nc3ccc(C)cc3)n2)ccc1O"
  assay.readout: "growth"
  unit.symbol: "%"
  meas.value: 5.95

Provide each entry's growth from the list below.
1. Cc1ccc(/C=C2/C(=O)N(C)c3ccc(S(=O)(=O)Nc4ccc(C(C)(C)C)cc4)cc32)s1
2. C/C=C/CSC(C)(C)C(=O)NC
3. CCCCCCCCCCCC[n+]1c(C)cc(N)c2ccccc21
4. COc1cc(NC(=O)Nc2cnc(Nc3ccc(N4CCOCC4)cc3)nc2Oc2cccc(OC)c2)cc(OC)c1
5. O=C(O)c1cc([N+](=O)[O-])ccc1Oc1ccccc1

a:
1: 23; 2: 100; 3: 16.5; 4: -68.4; 5: 94.6

For each entry beneath this line, provide reported growth.
1. COc1ccc(-c2cc(-c3ccccc3)nc(SCCCCCCC(=O)NO)n2)cc1
2. O=C(CCl)Nc1ccc(Cc2ccc(NC(=O)CCl)cc2)cc1

a:
1. 73.2
2. -87.7
